experimental_system: full-length human GLP-1R with an N-terminal FLAG tag (human, UniProt P43220 24-463)
assay_method_text: cell-based or functional assay
Non-standard residues stand in square brackets, D forms with d. Groups on a side chain read outwards from the residue. No end group written: not given here. *: point of attachment. C15 diacid = O=C(O)CCCCCCCCCCCCCC(=O)*; NMeY = CN[C@@H](Cc1ccc(O)cc1)C(=O)O; Aib = CC(C)(N)C(=O)O
// Human GLP1R cAMP HEK293T EC50 lookup, one value per entry

>  <binder>
[NMeY][Aib]EGTFISDYSIALDR[Aib]AQ[Aib]KFVNWLLAQRGGGGS-NH2 (not fully specified (residue 21)) [Compound 96]

>  <Human GLP1R cAMP HEK293T EC50 (nM)>
89.1

$$$$
>  <binder>
[NMeY][Aib]EGTFISDYSIALDR[Aib]K([G5gE-C15 diacid])Q[Aib]DFVNWLLAQSPSSGAPPPS-NH2 [Compound 74]

>  <Human GLP1R cAMP HEK293T EC50 (nM)>
550

$$$$
>  <binder>
[NMeY][Aib]EGTFISDYSIALDR[Aib]K([G5gE-C15 diacid])Q[Aib]NFVNWLLAQSPSSGAPPPS-NH2 [Compound 71]

>  <Human GLP1R cAMP HEK293T EC50 (nM)>
955

$$$$
